From: paper PMC5641865

# ASSAYED SYSTEM: PrkA kinase domain; PrkA(1-338) (Listeria monocytogenes, UniProt A0A0H3GI69)
# Construct: gene LMRG_00967; cytosolic kinase domain, residues 1-338, pGEX-2T GST fusion from E. coli Rosetta BL21, GST cut off with thrombin
# Sequence (A0A0H3GI69 entry or part of it): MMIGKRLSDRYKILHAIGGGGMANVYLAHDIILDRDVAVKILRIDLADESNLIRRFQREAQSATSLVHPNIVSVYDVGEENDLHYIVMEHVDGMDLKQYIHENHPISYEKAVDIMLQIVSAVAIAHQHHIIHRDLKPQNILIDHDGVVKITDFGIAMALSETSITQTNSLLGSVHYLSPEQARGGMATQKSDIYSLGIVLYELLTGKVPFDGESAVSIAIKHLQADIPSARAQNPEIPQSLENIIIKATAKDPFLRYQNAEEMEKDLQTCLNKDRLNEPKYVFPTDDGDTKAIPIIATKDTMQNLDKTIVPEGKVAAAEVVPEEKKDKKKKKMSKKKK
# METHOD NOTES: Kinase-Glo ATP depletion assay
# Assay type: biochemical
MEASUREMENT KIND: pIC50
Formally, pIC50 is defined as -log10 of the concentration c, with c in mol/L.

pIC50 lookup needed for CCn1c(-c2nonc2N)nc2c(C#CC(C)(C)O)ncc(OC[C@@H]3CCCN3)c21 [GSK614526A] , thanks.
6.38
